tested on: carrageenan-induced mouse paw swelling; test: carrageenan-induced mouse paw swelling model; type: in vivo; conditions: Mus musculus, po, 3 h; ICR mice, 130 mg/kg by gavage once a day for seven days, 180 min after onset of inflammation; read-out: Swelling degree
Parameter change in vivo at 130 mg/kg: see the listing below.
READOUT: change in vivo at 130 mg/kg (%)

[[record]]
compound = "CC1(C)O[C@@H]2C[C@H]3[C@@H]4C[C@H](F)C5=CC(=NO)C=C[C@]5(C)[C@@]4(F)[C@@H](O)C[C@]3(C)[C@]2(/C(CO)=N/O)O1"
readout = "change in vivo at 130 mg/kg"
obs_value = 1.36

[[record]]
compound = "C[C@H]1C[C@@H]2[C@H]([C@@H](O)C[C@@]3(C)[C@H]2CC[C@]3(O)/C(CO)=N/O)[C@@]2(C)C=CC(=NO)C=C12"
readout = "change in vivo at 130 mg/kg"
obs_value = 0.69

[[record]]
compound = "CCON=C1C=C[C@@]2(C)C(=C1)CC[C@@H]1[C@@H]2[C@@H](O)C[C@@]2(C)[C@H]1C[C@@H](C)[C@]2(O)/C(COC(C)=O)=N/OCC"
readout = "change in vivo at 130 mg/kg"
obs_value = 6.99

[[record]]
compound = "CC(=O)OC/C(=N\\O)[C@@]1(O)CC[C@H]2[C@@H]3CCC4=CC(=NO)CC[C@]4(C)[C@H]3[C@@H](O)C[C@@]21C"
readout = "change in vivo at 130 mg/kg"
obs_value = 2.7

[[record]]
compound = "CCCCC(=O)O[C@]1(/C(CO)=N/O)CC[C@H]2[C@@H]3C[C@H](C)C4=CC(=NO)C=C[C@]4(C)[C@H]3[C@@H](O)C[C@@]21C"
readout = "change in vivo at 130 mg/kg"
obs_value = 0.7

[[record]]
compound = "C[C@H]1C[C@@H]2[C@H]([C@@H](O)C[C@@]3(C)[C@H]2CC[C@]3(O)C(=O)CO)[C@@]2(C)C=CC(=O)C=C12 [Methylprednisolone, methylprednisolone, reference compound]"
readout = "change in vivo at 130 mg/kg"
obs_value = 10.1

[[record]]
compound = "C[C@]12C=CC(=NO)C=C1CC[C@@H]1[C@@H]2[C@@H](O)C[C@@]2(C)[C@H]1CC[C@]2(O)/C(CO)=N/O"
readout = "change in vivo at 130 mg/kg"
obs_value = 3.38

[[record]]
compound = "C[C@@H]1C[C@H]2[C@@H]3CCC4=CC(=NO)C=C[C@]4(C)[C@H]3[C@@H](O)C[C@]2(C)[C@H]1/C(CO)=N/O"
readout = "change in vivo at 130 mg/kg"
obs_value = 7.48

[[record]]
compound = "CC(=O)OC/C(=N\\O)[C@@]1(O)CC[C@H]2[C@@H]3C[C@H](C)C4=CC(=NO)C=C[C@]4(C)[C@H]3[C@@H](O)C[C@@]21C"
readout = "change in vivo at 130 mg/kg"
obs_value = 0.7

[[record]]
compound = "CCC(=O)OC/C(=N\\O)[C@@]1(O)[C@H](O)C[C@H]2[C@@H]3CCC4=CC(=NO)C=C[C@]4(C)[C@@]3(F)[C@@H](O)C[C@@]21C"
readout = "change in vivo at 130 mg/kg"
obs_value = 2.11


Hey, just so you know, these numbers are from patent US20230159583A1.
